Measured PBM binding z-score, listed per entry.
Tested on: LXRa homodimer (NR concentration 270 nM)
Assay: PBM binding z-score (relative to random genomic background probes); higher = stronger binding; sequences stand for … in GC…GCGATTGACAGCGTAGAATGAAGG
Respond numerically, and do not add a unit to the figure.

// sample "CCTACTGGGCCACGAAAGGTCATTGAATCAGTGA" , its PBM binding z-score was 4.09

The sequence identified as "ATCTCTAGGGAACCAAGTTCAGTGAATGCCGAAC" registered its PBM binding z-score at 0.471

Lookup result for "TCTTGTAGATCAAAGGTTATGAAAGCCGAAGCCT" ; measured PBM binding z-score: 0.00882

The value of PBM binding z-score measured for the sequence "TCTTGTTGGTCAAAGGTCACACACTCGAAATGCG" turned out to be 4.46

Data point: "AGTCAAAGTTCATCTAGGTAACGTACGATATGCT" ; PBM binding z-score = 5.65

Form field PBM binding z-score, entry "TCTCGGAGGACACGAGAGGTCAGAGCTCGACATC" : 2.61

So, "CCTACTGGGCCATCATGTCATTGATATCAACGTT" ? Its PBM binding z-score was -0.139
